Source listed as PubChem BioAssay AID1159580.

Assay: chemical genetic growth profiling, strain panel (AID 1159580);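 also: tested at 20 µM; growth read once vehicle control cultures reached saturation at 30 °C; lower values mean less growth of the strain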
Conditions: S. cerevisiae deletion strains, growth OD, locus YHR142W, strain chs7
In all, about 5,500 compounds went through this assay and about 2,000 (36%) were called active. Inconclusive results (about 18%) are left out. Rule as the data show it: active = normalized growth mostly below about 0.91 (no sharp cut-off); inconclusive = no clear call, values can overlap the other calls; inactive = mostly above about 0.92. Some of the results follow.
Could you please pick one outcome from this set? active, inactive

INSERT INTO results (compound, label) VALUES
  ('CC(C)=CCCC(C)[C@@H]1CC[C@]2(C)C3=C(CC[C@@]12C)C1(C)CC[C@H](O)C(C)(C)C1CC3 (some centres undefined)', 'inactive');

*Q* What did the test return for CC(=O)c1cc(CC=C(C)C)c(O)c(CC=C(C)C)c1 ?
*A* inactive

*Q* Dear colleague, could you share the recorded outcome for CC(C)=CCc1c2c(c3occ(-c4ccc(O)cc4)c(=O)c3c1O)C=CC(C)(C)O2 when you have a moment?
*A* active

*Q* Short answer needed: outcome of this test for CCN(CC)CCOC(=O)C1(C2CCCCC2)CCCCC1 ?
*A* inactive

*Q* Write down the call the test reported for this compound. Item: CC(CCc1ccccc1)NCC(O)c1ccc(O)c(C(N)=O)c1 (centres undefined)
*A* inactive

*Q* Per the assay record, what outcome was assigned to CC(=O)O[C@@H]1CC2C(C)(C)[C@H](O)C=C[C@]2(C)C2CC[C@]3(C)C(=CC(=O)O[C@H]3c3ccoc3)[C@@]21C (some centres undefined) ?
*A* inactive

*Q* For COC1CC2CCC(C)C(O)(O2)C(=O)C(=O)N2CCCCC2C(=O)OC(C(C)CC2CCC(O)C(OC)C2)CC(=O)C(C)/C=C(\C)C(O)C(OC)C(=O)C(C)CC(C)/C=C/C=C/C=C/1C (centres undefined) , which call appears in the assay record?
*A* active

*Q* Per the assay record, what outcome was assigned to CC(C)c1ccc2c(c1)CCC1C(C)(C(N)=O)CCCC21C (centres undefined) ?
*A* active

*Q* Recorded test call requested for CC(C)NCC(O)COc1ccc(COCCOC(C)C)cc1 (centres undefined)
*A* inactive

*Q* I would be grateful if you could indicate the recorded call for CC(C)CCCC(C)[C@H]1CCC2C3C(=O)C=C4C[C@@H](O)CC[C@]4(C)C3CC[C@@]21C (some centres undefined) .
*A* inactive

*Q* Test call for this compound, please: C=C1C[C@]23C[C@@]1(O)CC[C@H]2[C@@]12C=C[C@H](O)[C@@](C)(C(=O)O1)[C@H]2[C@@H]3C(=O)O
*A* inactive

*Q* GET /call?item= CC(=O)O[C@@H]1CC2C(C)(C)C(=O)C=C[C@]2(C)C2CC[C@]3(C)C(=CC(=O)O[C@H]3c3ccoc3)[C@@]21C (some centres undefined) returns the recorded outcome of this test.
*A* inactive

* * *

Test: chemical genetic growth profiling, strain panel (AID 1159580);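 also: tested at 20 µM; growth read once vehicle control cultures reached saturation at 30 °C; lower values mean less growth of the strain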
Details: S. cerevisiae deletion strains, growth OD, locus YPR163C, strain tif3
In all, about 5,500 compounds went through this assay and about 2,000 (36%) were called active. About 18% were inconclusive and are not listed. Rule as the data show it: active = normalized growth mostly below about 0.91 (no sharp cut-off); inconclusive = no clear call, values can overlap the other calls; inactive = mostly above about 0.92. Some of the results follow.
Choose the fitting class; nothing outside active, inactive is accepted.

Worked cases, answers included:
INSERT INTO measurements (compound, label) VALUES
  ('O=C(O)c1cccnc1', 'inactive'),
  ('CCN(CC)CCOC(=O)C1(C2CCCCC2)CCCCC1', 'inactive'),
  ('CC1(C)CC2C1CC[C@]1(CBr)CCC3C(CC(=O)O)C(=O)O[C@@]32C1 (some centres not stated)', 'inactive'),
  ('CCC(C)[C@H]1O[C@]2(C=C[C@@H]1C)C[C@@H]1C[C@@H](C/C=C(\C)[C@@H](OC3C[C@H](OC)C(O[C@H]4C[C@H](OC)[C@@H](O)[C@H](C)O4)[C@H](C)O3)[C@@H](C)/C=C/C=C3\CO[C@@H]4[C@H](O)C(C)=C[C@@H](C(=O)O1)[C@]34O)O2 (some centres not stated)', 'active'),
  ('O=C(NCO)c1cccnc1', 'inactive');

*Q* For CC12CCC3C(CC3(C)C)C(C)(CCC1=O)O2 (configuration not stated) , which call appears in the assay record?
*A* inactive

*Q* What outcome does the record of this test show for CC(=O)c1cc(CC=C(C)C)c(O)c(CC=C(C)C)c1 ?
*A* inactive

*Q* Please share the test call associated with CCCc1c(OCCCCc2nn[nH]n2)ccc(C(C)=O)c1O .
*A* inactive

*Q* Could you please tell me the result logged for CCN(CC)CCOC(=O)C(c1ccccc1)C1CCCCC1 (configuration not stated) in this assay?
*A* inactive

*Q* Outcome? CC(C)CCCC(C)[C@H]1CCC2C3C(=O)C=C4C[C@@H](O)CC[C@]4(C)C3CC[C@@]21C (some centres not stated)
*A* inactive

*Q* Any idea what this test logged for CCCSc1ccc2nc(NC(=O)OC)[nH]c2c1 ?
*A* active

*Q* How did this test come out for CCCN(CCC)S(=O)(=O)c1ccc(C(=O)O)cc1 ?
*A* inactive

* * *

Assay: chemical genetic growth profiling, strain panel (AID 1159580);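 also: tested at 20 µM; growth read once vehicle control cultures reached saturation at 30 °C; lower values mean less growth of the strain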
Conditions: S. cerevisiae deletion strains, growth OD, locus YLR357W, strain rsc2
In all, about 5,500 compounds went through this assay and about 2,000 (36%) were called active. Another 18% or so got no clear call; they are omitted. Rule as the data show it: active = normalized growth mostly below about 0.91 (no sharp cut-off); inconclusive = no clear call, values can overlap the other calls; inactive = mostly above about 0.92. The list shows a part of the results.
Please answer using one outcome listed in active, inactive

INSERT INTO results (compound, label) VALUES
  ('CC(=O)N[C@@H](Cc1c[nH]c2ccccc12)C(N)=O', 'inactive');

*Q* Write down the call the test reported for this compound. Item: CC(C)CCCC(C)C1CCC2C3C[C@@H](O)[C@@]4(O)C[C@@H](O)CC[C@]4(C)C3CC[C@]12C (stereo partly specified)
*A* inactive

*Q* What was the test verdict on CC(C)CCCC(C)[C@H]1CCC2C3CC=C4CC(=O)CC[C@]4(C)C3CC[C@@]21C (stereo partly specified) ?
*A* inactive

*Q* Per the records of this test, what outcome belongs to Cc1cn[nH]c1 ?
*A* inactive

*Q* Outcome? CC(CCC(=O)O)[C@H]1CCC2C3C(=O)C[C@@H]4CC(=O)CC[C@]4(C)C3CC(=O)[C@@]21C (stereo partly specified)
*A* inactive

*Q* Short answer needed: outcome of this test for CC(C)CCCC(C)C1CCC2C3CC(=O)[C@H]4C[C@@H](O)CC[C@]4(C)C3CC[C@]12C (stereo partly specified) ?
*A* inactive

*Q* Entry CC(CCC(=O)O)[C@H]1CCC2C3CC[C@@H]4C[C@H](O)CC[C@]4(C)C3C=C[C@@]21C (stereo partly specified) : call = ?
*A* inactive

*Q* Record request — test call for O=C(O)c1cc(O)c2c(c1)[C@@H]([C@H]1c3cc(C(=O)O)cc(O)c3C(=O)c3c(O[C@H]4O[C@H](CO)[C@@H](O)[C@H](O)[C@H]4O)cccc31)c1cccc(O[C@H]3O[C@H](CO)[C@@H](O)[C@H](O)[C@H]3O)c1C2=O
*A* active

*Q* Hello, I am checking results. What call was entered for CC12CCC(=O)C=C1CCC1C2[C@@H](O)CC2(C)C1CC[C@]2(O)C(=O)COP(=O)(O)O (stereo partly specified) ?
*A* inactive

*Q* // outcome(item) with item = CC(=O)OCC(=O)[C@@]1(O)[C@H](C)CC2C3CCC4=CC(=O)C=C[C@]4(C)[C@@]3(F)[C@@H](O)C[C@@]21C (stereo partly specified)
*A* inactive

*Q* Write down the call the test reported for this compound. Item: N[C@@H](CCC(=O)N[C@@H](CS)C(=O)NCC(=O)O)C(=O)O
*A* inactive

*Q* Per the assay record, what outcome was assigned to CC(CCc1ccccc1)NCC(O)c1ccc(O)c(C(N)=O)c1 (stereo unspecified) ?
*A* inactive

*Q* Outcome logged for CC1=CC(=O)c2ccccc2C1=O in this assay:
*A* inactive

*Q* Hi, do you know how CC(C)c1ccc2c(c1)CCC1C(C)(C(N)=O)CCCC21C (stereo unspecified) came out in this test?
*A* inactive

*Q* Field: outcome | Entry: CCOC(=O)NNc1nncc2ccccc12
*A* inactive

*Q* Kindly provide the recorded test outcome for the following compound: CC(C)CCCC(C)C1CCC2C3=CC[C@H]4C[C@@H](O)CC[C@]4(C)C3CC[C@@]21C (stereo partly specified)
*A* inactive

*Q* Query: recorded result category for CCCSc1ccc2nc(NC(=O)OC)[nH]c2c1 in this test
*A* inactive

*Q* Test call, this compound: CC(C)CCCC(C)[C@H]1CCC2C3CC=C4C[C@@H](O)CC[C@]4(C)C3CC[C@@]21C (stereo partly specified)
*A* inactive

*Q* Per the records of this test, what outcome belongs to CC(C)c1ccc2c(c1)CCC1[C@](C)(CN)CCC[C@]21C (stereo partly specified) ?
*A* inactive

*Q* Any idea what this test logged for CCCOc1ccc2nc(NC(=O)OC)[nH]c2c1 ?
*A* inactive

*Q* Per the records of this test, what outcome belongs to CC(=O)Oc1ccc(/C=C/c2cc(OC(C)=O)cc(OC(C)=O)c2)cc1 ?
*A* inactive

*Q* Just curious, what result did CC(C)(C)NCC(O)c1ccc(O)c(CO)c1 (stereo unspecified) get here?
*A* inactive

*Q* Test call, this compound: O=P1(N(CCCl)CCCl)NCCCO1 (stereo unspecified)
*A* inactive
